system: ultraviolet inactivated HSV; experiment: Delayed type hypersensitivity (DTH), ear pinna swelling at 48 hours (FIG. 3); type: in vivo, Balb/c mice; conditions: vaccinated unchallenged mice, 4 weeks after last immunization, 48 hours after injection of UV inactivated HSV
quantity-name: DTH response (redness and swelling of ear pinna)

substance: LHG PEI LDV PST GGG LYR TFA GNP RA (SEQ ID NO:13) (LHGPEILDVPSTGGGLYRTFAGNPRA) [LH1, conjugated polypeptide of Peptide L, GGG spacer and peptide H1]
result: not
//
substance: NGQ EEK AGV VST GLI GGG LYR TFA GNP RA (SEQ ID NO:12) (NGQEEKAGVVSTGLIGGGLYRTFAGNPRA) [GH1, conjugated polypeptide of Peptide G, GGG spacer and peptide H1]
result: not
//
substance: LYRTFAGNPRA (SEQ ID NO:1) [H1, non-conjugated antigenic peptide, amino acid residues 322 to 332 of the ICP27 protein of HSV-1, reference compound]
result: not
